assay: The drug is tested on Z-025 corresponding to rabbit gut metagenome with ENA study accession number: PRJEB37062 and ENA sample accession number: ERS12561824 for biotransformation under anaerobic condition. The drug concentrations were measured over 9 timepoints collected between 0 and 24 hours of incubation by liquid-chromatography-coupled mass spectrometry (LC–MS); conditions: 2 µM; note: call rule not given here
quantity.measured: Bacterial Biotransformation

INSERT INTO measurements (compound, assay_result) VALUES
  ('O=C(O)COCCN1CCN(C(c2ccccc2)c2ccc(Cl)cc2)CC1 (centres undefined)', 'Compound NOT metabolized'),
  ('OCCN1CCN(CCCN2c3ccccc3Sc3ccc(C(F)(F)F)cc32)CC1', 'Compound metabolized'),
  ('OC(Cn1cncn1)(Cn1cncn1)c1ccc(F)cc1F', 'Compound NOT metabolized'),
  ('CC(C)(C#N)c1cc(Cn2cncn2)cc(C(C)(C)C#N)c1', 'Compound NOT metabolized'),
  ('CN(C)CCc1c[nH]c2ccc(Cn3cncn3)cc12.O=C(O)c1ccccc1 [RIZATRIPTAN BENZOATE]', 'Compound NOT metabolized'),
  ('CN1CCc2cccc3c2[C@H]1Cc1ccc(O)c(O)c1-3', 'Compound metabolized'),
  ('CNC(=C[N+](=O)[O-])NCCSCc1ccc(CN(C)C)o1', 'Compound NOT metabolized'),
  ('Cc1ccc(-c2nc3ccc(C)cn3c2CC(=O)N(C)C)cc1', 'Compound NOT metabolized'),
  ('O=C1NCC2(CCN(CCc3ccccc3)CC2)O1 [FENSPIRIDE]', 'Compound NOT metabolized'),
  ('COc1ccccc1OCC(O)COC(N)=O (centres undefined)', 'Compound NOT metabolized'),
  ('COc1ccc2c(c1OC)C(=O)O[C@@H]2[C@H]1c2c(cc3c(c2OC)OCO3)CCN1C', 'Compound NOT metabolized'),
  ('Clc1ccc(Cn2c(CN3CCCC3)nc3ccccc32)cc1', 'Compound metabolized'),
  ('Cc1cc2c(cc1S(N)(=O)=O)S(=O)(=O)CCC2', 'Compound NOT metabolized'),
  ('Cc1nc2n(c(=O)c1CCN1CCC(c3noc4cc(F)ccc34)CC1)CCCC2', 'Compound metabolized'),
  ('Cc1ccccc1N1C(=O)c2cc(S(N)(=O)=O)c(Cl)cc2NC1C (centres undefined)', 'Compound metabolized'),
  ('CC(=O)OCC(=O)[C@@]12N=C(C)O[C@@H]1C[C@H]1[C@@H]3CCC4=CC(=O)C=C[C@]4(C)[C@H]3[C@@H](O)C[C@@]12C', 'Compound metabolized'),
  ('CN1C(=O)CCS(=O)(=O)C1c1ccc(Cl)cc1 (centres undefined)', 'Compound NOT metabolized'),
  ('OCCOCCN1CCN(C2=Nc3ccccc3Sc3ccccc32)CC1', 'Compound metabolized'),
  ('CC(C)NCC(O)c1ccc(NS(C)(=O)=O)cc1 (centres undefined)', 'Compound NOT metabolized');

----------
experiment: The drug is tested on WLS-039 corresponding to human gut metagenome with ENA study accession number: PRJEB37062 and ENA sample accession number: ERS12561746 for biotransformation under anaerobic condition. The drug concentrations were measured over 9 timepoints collected between 0 and 24 hours of incubation by liquid-chromatography-coupled mass spectrometry (LC–MS); details: 2 µM
quantity.measured: Bacterial Biotransformation

INSERT INTO measurements (compound, assay_result) VALUES
  ('OC(CCN1CCCCC1)(c1ccccc1)C1CC2C=CC1C2 (stereo not drawn)', 'Compound NOT metabolized'),
  ('O=c1[nH]c2ccccc2n1CCCN1CCC(n2c(=O)[nH]c3cc(Cl)ccc32)CC1', 'Compound NOT metabolized'),
  ('CCN(CC)CCOCCOC(=O)C1(c2ccccc2)CCCC1.O=C(O)CC(O)(CC(=O)O)C(=O)O [CARBETAPENTANE CITRATE]', 'Compound metabolized'),
  ('CC[C@H](C)C(=O)O[C@H]1C[C@@H](C)C=C2C=C[C@H](C)[C@H](CC[C@@H]3C[C@@H](O)CC(=O)O3)[C@H]21', 'Compound NOT metabolized'),
  ('CC(O)(CS(=O)(=O)c1ccc(F)cc1)C(=O)Nc1ccc(C#N)c(C(F)(F)F)c1 (stereo not drawn) [BICALUTAMIDE]', 'Compound NOT metabolized'),
  ('O=P(O)(O)O.c1ccc(CN(CC2=NCCN2)c2ccccc2)cc1 [ANTAZOLINE PHOSPHATE]', 'Compound NOT metabolized'),
  ('CC(CN(C)C)CN1c2ccccc2CCc2ccccc21.O=C(O)/C=C\C(=O)O (stereo not drawn) [TRIMIPRAMINE MALEATE]', 'Compound metabolized'),
  ('CNC(=C[N+](=O)[O-])NCCSCc1ccc(CN(C)C)o1', 'Compound NOT metabolized');

Cited source: ChEMBL document CHEMBL5724914
